// data source = the supplement of paper PMC7877785

runDescription: self-splicing fitness, log relative to wild type (ln ratio); higher = more splicing; Tetrahymena group I intron in knt gene, E. coli kanamycin selection, DiMSum; sequences stand for … in CUCUCU…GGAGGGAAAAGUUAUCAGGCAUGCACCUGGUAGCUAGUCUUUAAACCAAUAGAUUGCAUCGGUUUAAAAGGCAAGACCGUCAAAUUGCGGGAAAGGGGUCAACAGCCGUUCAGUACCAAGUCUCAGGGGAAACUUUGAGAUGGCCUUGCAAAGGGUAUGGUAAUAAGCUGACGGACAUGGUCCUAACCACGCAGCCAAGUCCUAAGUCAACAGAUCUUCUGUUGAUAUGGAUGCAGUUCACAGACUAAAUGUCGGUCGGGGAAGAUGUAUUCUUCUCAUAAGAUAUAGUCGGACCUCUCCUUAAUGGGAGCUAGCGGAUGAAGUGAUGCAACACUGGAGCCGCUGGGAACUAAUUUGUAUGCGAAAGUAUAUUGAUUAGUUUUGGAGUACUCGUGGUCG;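 note: selection with 25 µg/mL kanamycin versus none on LB agar overnight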
condition: 37 °C
Assign Y to entries whose self-splicing fitness (ln) meets or exceeds -1; assign N to the rest.

inputSequence: AGCUAGCAAUAUUACGAUUG
assignedClass: N

Problem: Threshold query (self-splicing fitness (ln) >= -1) on CGCAAGCAAUAUUACGACCU
Result: Y

Problem: Now consider CGGCAGCAAUAUUACGAUCG .
Result: N

Problem: Another: GCCGAGCAAUAUUACGGGCC
Result: N

Problem: Would you mind doing AGUAAGCAAUAUUACGCGUA as well?
Result: Y

Problem: CAAAAGCAAUAUUACGAAGC ?
Result: N

Problem: Likewise for AAUUAGCAAUAUUACGAAUU ?
Result: N

Problem: // repeat for ACGUAGCAAUAUUACGUUUA and report
Result: N

Problem: Proceed to AAGUAGCAAUAUUACGUGCA
Result: Y

Problem: What do you get for CUCGAGCAAUAUUACGUACG ?
Result: N

Problem: Query GGACAGCAAUAUUACGCGGG next
Result: Y

Problem: Now the sequence CACAAGCAAUAUUACGUCCC
Result: N

* * *

runDescription: self-splicing fitness, log relative to wild type (ln ratio); higher = more splicing; Tetrahymena group I intron in knt gene, E. coli kanamycin selection, DiMSum; sequences stand for … in CUCUCU…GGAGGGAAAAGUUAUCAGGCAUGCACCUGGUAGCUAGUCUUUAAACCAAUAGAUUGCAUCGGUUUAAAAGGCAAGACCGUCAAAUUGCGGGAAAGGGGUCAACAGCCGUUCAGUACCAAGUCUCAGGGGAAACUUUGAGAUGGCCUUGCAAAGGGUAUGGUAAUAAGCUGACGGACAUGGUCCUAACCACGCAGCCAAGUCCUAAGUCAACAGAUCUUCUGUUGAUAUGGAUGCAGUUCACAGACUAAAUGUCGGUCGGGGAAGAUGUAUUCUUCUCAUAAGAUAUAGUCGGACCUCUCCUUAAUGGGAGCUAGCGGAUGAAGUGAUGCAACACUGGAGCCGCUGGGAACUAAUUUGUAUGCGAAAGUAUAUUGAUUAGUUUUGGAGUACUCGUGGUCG
condition: 37 °C
readoutLabel: self-splicing fitness (ln)
// no unit string in output, number only

inputSequence: AGCUAGCAAUAUUACGGCAG
self-splicing fitness (ln): -1.08
//
inputSequence: CCUUAGCAAUAUUACGCGGG
self-splicing fitness (ln): -2.21
//
inputSequence: AAUCAGCAAUAUUACGGUGC
self-splicing fitness (ln): -0.189
//
inputSequence: ACAUAGCAAUAUUACGCAGU
self-splicing fitness (ln): -2.84
//
inputSequence: GAGAAGCAAUAUUACGGAAU
self-splicing fitness (ln): -1.55

Problem: I am curious: what self-splicing fitness (ln) value has been reported for ACUGAGCAAUAUUACGCGUC ?
Result: -2.35

Problem: Entry CAGAAGCAAUAUUACGCAAC please
Result: -2.39

Problem: Moving on to the next sequence: UCGCAGCAAUAUUACGCAUU
Result: -2.43

Problem: Same lookup for AUCAAGCAAUAUUACGUUUU , please.
Result: -0.791

Problem: Could you do the same for CUUUAGCAAUAUUACGUAUA , please?
Result: -2.38

Problem: Follow-up entry: CUUCAGCAAUAUUACGUUCA
Result: -2.04

Problem: Note, next up: GUAGAGCAAUAUUACGAUUA
Result: -0.396

* * *

Entries and their measured self-splicing fitness (ln) follow.
runDescription: self-splicing fitness, log relative to wild type (ln ratio); higher = more splicing; Tetrahymena group I intron in knt gene, E. coli kanamycin selection, DiMSum; sequences stand for … in CUCUCU…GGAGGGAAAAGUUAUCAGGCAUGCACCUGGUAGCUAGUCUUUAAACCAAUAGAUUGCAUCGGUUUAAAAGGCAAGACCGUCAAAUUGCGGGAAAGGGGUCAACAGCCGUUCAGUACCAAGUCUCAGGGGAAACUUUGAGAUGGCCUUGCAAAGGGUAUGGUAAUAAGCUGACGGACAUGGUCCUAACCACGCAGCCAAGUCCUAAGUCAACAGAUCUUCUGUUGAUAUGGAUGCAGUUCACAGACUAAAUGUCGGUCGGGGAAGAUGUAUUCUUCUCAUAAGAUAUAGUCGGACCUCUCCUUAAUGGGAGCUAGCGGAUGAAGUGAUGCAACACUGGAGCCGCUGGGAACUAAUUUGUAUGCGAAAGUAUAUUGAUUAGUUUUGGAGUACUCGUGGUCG
condition: 37 °C
In your answer, state the number alone without any accompanying words.

Illustrative cases are given below, each with its answer.
inputSequence: GAUUAGCAAUAUUACGCUCU
self-splicing fitness (ln): -0.272
--
inputSequence: GAAUAGCAAUAUUACGGUCU
self-splicing fitness (ln): -0.0473
--
inputSequence: CCGGAGCAAUAUUACGAACC
self-splicing fitness (ln): -1.97
--
inputSequence: GGAAAGCAAUAUUACGUGUU
self-splicing fitness (ln): -1.66
--
inputSequence: UGGUAGCAAUAUUACGCUCU
self-splicing fitness (ln): -1.31

Problem: Recorded self-splicing fitness (ln) for GCCGAGCAAUAUUACGCAUA , please?
Result: -1.41

Problem: Similarly, AUUAAGCAAUAUUACGACGA ?
Result: 0.398

Problem: Try ACCGAGCAAUAUUACGACAC next.
Result: -1.73

Problem: Now try AUACAGCAAUAUUACGUAGG .
Result: -0.536

Problem: Follow-up item: UAAGAGCAAUAUUACGACAG
Result: -2.34

Problem: Follow-up item: CCUCAGCAAUAUUACGUGUU
Result: -3.41

Problem: Next entry: CAGGAGCAAUAUUACGGAAG
Result: -1.67

Problem: And what about the sequence GCGCAGCAAUAUUACGUCCC ?
Result: 0.234

Problem: Next record, please: UACCAGCAAUAUUACGCAAU
Result: -0.841

Problem: Further, for GCAAAGCAAUAUUACGUUUU ?
Result: -3

* * *

runDescription: self-splicing fitness, log relative to wild type (ln ratio); higher = more splicing; Tetrahymena group I intron in knt gene, E. coli kanamycin selection, DiMSum; sequences stand for … in CUCUCU…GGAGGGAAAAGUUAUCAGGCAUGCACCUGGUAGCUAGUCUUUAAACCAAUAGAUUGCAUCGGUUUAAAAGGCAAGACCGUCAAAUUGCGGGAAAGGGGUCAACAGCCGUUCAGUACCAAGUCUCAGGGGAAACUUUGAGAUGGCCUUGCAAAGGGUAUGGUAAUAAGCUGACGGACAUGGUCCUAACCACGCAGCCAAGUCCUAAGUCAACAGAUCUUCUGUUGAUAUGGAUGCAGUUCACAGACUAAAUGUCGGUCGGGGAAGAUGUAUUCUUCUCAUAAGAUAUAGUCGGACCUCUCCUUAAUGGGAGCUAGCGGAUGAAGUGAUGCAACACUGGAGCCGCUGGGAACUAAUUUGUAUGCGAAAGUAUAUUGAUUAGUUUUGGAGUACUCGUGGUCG
condition: 30 °C
// values below are reported self-splicing fitness (ln)
Give the value as a plain number.

inputSequence: UUUAAGCAAUAUUACGGCGA
measurement: 0.000504
//
inputSequence: GUUGAGCAAUAUUACGCCCA
measurement: -1.93
//
inputSequence: CGGGAGCAAUAUUACGGGCU
measurement: -3.85

Next sequence, please.
Problem: Dear colleague, I am looking for the recorded self-splicing fitness (ln) of the following sequence: GUGAAGCAAUAUUACGAUAC
Result: -0.501

* * *

runDescription: self-splicing fitness, log relative to wild type (ln ratio); higher = more splicing; Tetrahymena group I intron in knt gene, E. coli kanamycin selection, DiMSum; sequences stand for … in CUCUCU…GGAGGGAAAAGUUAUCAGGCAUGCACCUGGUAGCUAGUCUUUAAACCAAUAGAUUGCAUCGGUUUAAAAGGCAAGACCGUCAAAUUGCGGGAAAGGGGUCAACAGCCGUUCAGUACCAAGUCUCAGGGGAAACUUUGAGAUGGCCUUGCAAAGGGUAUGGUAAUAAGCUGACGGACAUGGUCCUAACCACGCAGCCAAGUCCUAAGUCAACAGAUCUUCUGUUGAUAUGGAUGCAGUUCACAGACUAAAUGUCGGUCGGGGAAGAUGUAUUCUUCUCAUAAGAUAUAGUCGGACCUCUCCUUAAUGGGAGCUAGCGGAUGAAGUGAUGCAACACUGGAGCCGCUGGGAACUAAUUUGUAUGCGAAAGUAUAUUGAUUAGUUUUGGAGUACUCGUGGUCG
condition: 37 °C
readoutLabel: self-splicing fitness (ln)

Known results for sequences:
inputSequence: GUAGAGCAAUAUUACGUUAG
self-splicing fitness (ln): -0.99
//
inputSequence: CUACAGCAAUAUUACGGCGC
self-splicing fitness (ln): -1.68
//
inputSequence: GUCGAGCAAUAUUACGUCGG
self-splicing fitness (ln): -2.34
//
inputSequence: CAGGAGCAAUAUUACGGAUA
self-splicing fitness (ln): -0.862

Problem: Which self-splicing fitness (ln) is reported for this sequence? CUGAAGCAAUAUUACGACUU
Result: -1.75

Problem: And ACCCAGCAAUAUUACGAUCC ?
Result: -1.17

Problem: Entry AUGGAGCAAUAUUACGGUUU please
Result: -2.26
